parameter: melting point

Examples from the recorded data:
compound	recorded measurement
C=CCc1ccc(OCc2cn(CCCCCCCCCOc3ccc4ccc(=O)oc4c3)nn2)c(OC)c1 [Compound 33]	83 to 84 °C
Cc1ccc(C(C)C)cc1OCCOc1ccc2ccc(=O)oc2c1 [Compound 52]	172 to 173 °C
CC1CCC(C(C)C)C(OCc2cn(CCCCOc3ccc4ccc(=O)oc4c3)nn2)C1 (stereo not drawn) [Compound 38]	75 to 76 °C
C=CCc1ccc(OCc2cn(CCOc3ccc4ccc(=O)oc4c3)nn2)c(OC)c1 [Compound 28]	118 to 119 °C
C=CCc1ccc(OCc2cn(CCCCOc3ccc4ccc(=O)oc4c3)nn2)c(OC)c1 [Compound 30]	73 to 74 °C
Cc1ccc(C(C)C)cc1OCCCCCCCCCCOc1ccc2ccc(=O)oc2c1 [Compound 58]	50 to 51 °C
C=CCc1ccc(OCCCOc2ccc3ccc(=O)oc3c2)c(OC)c1 [Compound 61]	70 to 71 °C
Cc1ccc(C(C)C)c(OCc2cn(CCCCCCCCCCOc3ccc4ccc(=O)oc4c3)nn2)c1 [Compound 18]	72 to 73 °C

Exam item: Name the reported melting point value associated with the compound C=CCc1ccc(OCCOc2ccc3ccc(=O)oc3c2)c(OC)c1 [Compound 60]
Marked response: 86 to 87 °C

All values here come from paper PMC9933483.
